- Tested System: T1, ALK1-fragment crystallizable region (Fc), wild type ALK1 ectodomain (human, UniProt P37023 22-118)
- T1 construct: also called ALK1-Fc; ALK1^ecto-Fc; not shown: Fc tag
- T1 sequence (P37023 22-118): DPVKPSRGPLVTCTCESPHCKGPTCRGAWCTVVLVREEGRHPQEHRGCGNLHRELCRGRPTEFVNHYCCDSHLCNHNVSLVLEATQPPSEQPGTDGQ
- Protocol Details: fluorescence polarization (Fp), recombinant ALK1-Fc and fluorescein labelled peptide
fluorescein = fluorescein (fluorescent label)
Result Type: Kd (µM)

* fluorescein-GQDDCTGDEDYTYLIL-NH2 (also called HPLC purified fluorescein labelled peptide) [fluorescein labelled ApoB100 peptide Site 1, GQDDCTGDEDYTYLIL] | 2.45
